Values compiled from PubChem BioAssay AID1919008.

System: DMS-114 complex spheroids with HUVEC/MSC, growth % test/control
procedure-summary: Anticancer human tumor DMS-114 cell line growth inhibition [AhR];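 also: spheroids exposed to agents for 7 days before readout; 100% = DMSO vehicle control wells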
condition-parameters: second compound 0.1 µM; first compound 0.1 µM; stronger effect = lower value
measured-endpoint: viability, T/C (%)

[[record]]
compound = "COc1cc(Nc2ncc3c(n2)-c2ccc(Cl)cc2C(c2c(F)cccc2OC)=NC3)ccc1C(=O)O + CC(CO)NC(=O)c1cc(-c2ccc(Cl)cc2)nn(-c2cnn(C)c2)c1=O"
unit_of_measure = "%"
experimental_value = 25.1

[[record]]
compound = "O=C(C=Cc1cccc(S(=O)(=O)Nc2ccccc2)c1)NO + Cc1ccccc1N=Nc1ccc(NC(=O)c2ccnn2C)c(C)c1"
unit_of_measure = "%"
experimental_value = 101

[[record]]
compound = "Nc1ncn(C2CC(O)C(CO)O2)c(=O)n1 (centres undefined) + Cc1cncc(-c2nc(NCCc3c[nH]c4ccccc34)c3ncn(C(C)C)c3n2)c1"
unit_of_measure = "%"
experimental_value = 101

[[record]]
compound = "Cn1ncnc1C1c2n[nH]c(=O)c3cc(F)cc(c23)NC1c1ccc(F)cc1 (centres undefined) + Cc1cncc(-c2nc(NCCc3c[nH]c4ccccc34)c3ncn(C(C)C)c3n2)c1"
unit_of_measure = "%"
experimental_value = 75.5


---

System: DMS-114 complex spheroids with HUVEC/MSC, growth % test/control
procedure-summary: Anticancer human tumor DMS-114 cell line growth inhibition [AhR];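 also: spheroids exposed to agents for 7 days before readout; 100% = DMSO vehicle control wells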
condition-parameters: second compound 0.1 µM; first compound 0.1 µM; stronger effect = lower value
Text: Multicellular complex tumor spheroid response to aryl hydrocarbon receptor antagonists in combination with a variety of drugs and investigational agents in selected tumor cell lines […] Compounds. […] If the clinical Cmax for an agent had not been determined, the highest concentration tested was 10 microM (Table 1). […]
Label Fulfilled when viability, T/C is strictly below 90%; otherwise label Not fulfilled.

[[record]]
compound = "COc1cc(C2c3cc4c(cc3C(OC3OC5COC(C)OC5C(O)C3O)C3COC(=O)C23)OCO4)cc(OC)c1O (stereo unspecified) + Cc1cncc(-c2nc(NCCc3c[nH]c4ccccc34)c3ncn(C(C)C)c3n2)c1"
system_tested = "DMS-114 complex spheroids with HUVEC/MSC, growth % test/control"
group = "Not fulfilled"

[[record]]
compound = "O=C(c1cc(Cc2n[nH]c(=O)c3ccccc23)ccc1F)N1CCN(C(=O)C2CC2)CC1 + CC(CO)NC(=O)c1cc(-c2ccc(Cl)cc2)nn(-c2cnn(C)c2)c1=O"
system_tested = "DMS-114 complex spheroids with HUVEC/MSC, growth % test/control"
group = "Not fulfilled"

[[record]]
compound = "COc1cccc2c1C(=O)c1c(O)c3c(c(O)c1C2=O)CC(O)(C(=O)CO)CC3OC1CC(N)C(O)C(C)O1 (stereo unspecified) + CC(CO)NC(=O)c1cc(-c2ccc(Cl)cc2)nn(-c2cnn(C)c2)c1=O"
system_tested = "DMS-114 complex spheroids with HUVEC/MSC, growth % test/control"
group = "Fulfilled"

[[record]]
compound = "Nc1ccn(C2OC(CO)C(O)C2(F)F)c(=O)n1 (stereo unspecified) + Cc1cncc(-c2nc(NCCc3c[nH]c4ccccc34)c3ncn(C(C)C)c3n2)c1"
system_tested = "DMS-114 complex spheroids with HUVEC/MSC, growth % test/control"
group = "Fulfilled"

[[record]]
compound = "CC1COCCN1c1cc(-c2ccnn2C)c2ccnc(-c3ccn[nH]3)c2n1 (stereo unspecified) + Cc1ccccc1N=Nc1ccc(NC(=O)c2ccnn2C)c(C)c1"
system_tested = "DMS-114 complex spheroids with HUVEC/MSC, growth % test/control"
group = "Fulfilled"

[[record]]
compound = "Nc1ccccc1NC(=O)c1ccc(CNC(=O)OCc2cccnc2)cc1 + CC(CO)NC(=O)c1cc(-c2ccc(Cl)cc2)nn(-c2cnn(C)c2)c1=O"
system_tested = "DMS-114 complex spheroids with HUVEC/MSC, growth % test/control"
group = "Fulfilled"

